# Test target: Toll-like receptor 1/2 (Mus musculus, UniProt Q9EPQ1+Q9QUN7)
# Sequence (Q9QUN7 whole entry): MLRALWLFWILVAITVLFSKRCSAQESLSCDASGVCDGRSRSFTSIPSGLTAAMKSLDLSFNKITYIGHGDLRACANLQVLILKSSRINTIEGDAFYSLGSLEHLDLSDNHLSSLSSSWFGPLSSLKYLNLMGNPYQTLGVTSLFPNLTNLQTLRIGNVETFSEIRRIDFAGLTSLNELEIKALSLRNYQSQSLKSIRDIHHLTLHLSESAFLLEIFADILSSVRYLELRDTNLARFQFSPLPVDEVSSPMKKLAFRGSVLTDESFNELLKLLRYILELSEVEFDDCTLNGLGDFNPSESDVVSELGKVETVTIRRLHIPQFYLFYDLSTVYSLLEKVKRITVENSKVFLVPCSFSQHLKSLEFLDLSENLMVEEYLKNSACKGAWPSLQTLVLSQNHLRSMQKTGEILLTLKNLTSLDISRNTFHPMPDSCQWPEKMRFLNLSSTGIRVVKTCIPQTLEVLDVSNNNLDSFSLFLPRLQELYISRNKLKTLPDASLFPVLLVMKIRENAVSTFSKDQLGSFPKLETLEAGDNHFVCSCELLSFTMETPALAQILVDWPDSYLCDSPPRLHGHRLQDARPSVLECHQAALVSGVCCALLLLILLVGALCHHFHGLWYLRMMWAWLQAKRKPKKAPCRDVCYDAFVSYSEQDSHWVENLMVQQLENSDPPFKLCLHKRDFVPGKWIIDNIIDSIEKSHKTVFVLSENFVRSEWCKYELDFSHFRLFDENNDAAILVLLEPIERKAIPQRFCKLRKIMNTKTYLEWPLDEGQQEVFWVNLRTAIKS
# Sequence (Q9EPQ1 whole entry): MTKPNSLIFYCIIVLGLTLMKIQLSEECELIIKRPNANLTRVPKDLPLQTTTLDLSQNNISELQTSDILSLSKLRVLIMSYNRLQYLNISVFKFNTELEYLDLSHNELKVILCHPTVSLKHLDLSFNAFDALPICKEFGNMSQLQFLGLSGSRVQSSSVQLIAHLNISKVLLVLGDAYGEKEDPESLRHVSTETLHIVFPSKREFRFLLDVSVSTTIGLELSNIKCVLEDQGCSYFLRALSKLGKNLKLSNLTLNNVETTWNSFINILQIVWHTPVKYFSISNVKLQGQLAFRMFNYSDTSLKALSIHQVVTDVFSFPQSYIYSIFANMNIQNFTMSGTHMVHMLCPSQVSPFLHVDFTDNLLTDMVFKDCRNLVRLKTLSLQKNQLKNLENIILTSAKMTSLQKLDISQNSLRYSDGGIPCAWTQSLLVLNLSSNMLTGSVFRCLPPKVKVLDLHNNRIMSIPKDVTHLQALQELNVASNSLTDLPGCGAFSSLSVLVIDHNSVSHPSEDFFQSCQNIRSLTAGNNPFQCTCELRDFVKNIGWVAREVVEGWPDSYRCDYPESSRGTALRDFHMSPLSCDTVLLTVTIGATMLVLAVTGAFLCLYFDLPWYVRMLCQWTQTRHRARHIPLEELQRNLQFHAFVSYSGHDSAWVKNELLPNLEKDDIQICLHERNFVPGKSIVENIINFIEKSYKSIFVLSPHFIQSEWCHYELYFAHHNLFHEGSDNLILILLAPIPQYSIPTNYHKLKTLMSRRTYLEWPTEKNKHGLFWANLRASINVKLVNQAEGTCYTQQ
# Assay comment: Antagonist activity at TLR1/2 in mouse RAW264.7 cells assessed as inhibition of Pam3CSK4-induced receptor activation by measuring NO production after 24 hrs
Lab note: compare IC50 with 3 µM, writing met if less and not met if equal or more.

Exam item: Is it true that IC50 reported for `CCCCNC(=O)c1cc(O)c(=O)c2c(O)c(O)c(OC)cc2c1` is less than 3 µM?
Marked response: met

Exam item: Is it true that IC50 reported for COc1cc2c(c(OC)c1OC)C(=O)C1(OC)C=CC2C2C(=O)OC(=O)C21 (stereo not given) is less than 3 µM?
Marked response: not met

Exam item: Is it true that IC50 reported for `CC(=O)Oc1cc2cccc(OC(C)=O)c(=O)c2c(OC(C)=O)c1OC(C)=O` is less than 3 µM?
Marked response: met

Exam item: Is it true that IC50 reported for `CCCCOC(=O)c1cc(O)c(=O)c2c(O)c(O)c(OC)cc2c1` is less than 3 µM?
Marked response: met

Exam item: Is it true that IC50 reported for `CCCCCCCCCCCCCCOC(=O)c1cc(O)c(=O)c2c(O)c(O)c(OC)cc2c1` is less than 3 µM?
Marked response: not met

Exam item: Is it true that IC50 reported for `CC(=O)Oc1cc2cccc(O)c(=O)c2c(O)c1O` is less than 3 µM?
Marked response: not met

Exam item: Is it true that IC50 reported for `O=c1c(O)cccc2cc(F)c(O)c(O)c12` is less than 3 µM?
Marked response: not met

Exam item: Is it true that IC50 reported for `CC(=O)Oc1cc2cccc(OC(C)=O)c(=O)c2c(O)c1OC(C)=O` is less than 3 µM?
Marked response: met

Exam item: Is it true that IC50 reported for O=C(O)c1cc(O)c(=O)c2c(O)c(O)ccc2c1 [7-DESHYDROXYPYROGALLIN-4-CARBOXYLIC ACID] is less than 3 µM?
Marked response: not met

Exam item: Is it true that IC50 reported for `Cc1cc(O)c(O)c2c(=O)c(O)cccc12` is less than 3 µM?
Marked response: not met

Value source: ChEMBL document CHEMBL3880440
